measurementDescription: Toxicity liver stage against HepG2, at 10uM
Assay type: cell-based
Set-up: test concentration 10 uM, cell line HepG2-A16-CD81EGFP
reportedConditions: human, HepG2-A16-CD81EGFP cells; read-out: INHIBITION
Documented cytotoxicity at 10 µM across a set of molecules
valueKind: cytotoxicity at 10 µM (%)

>>> observedvalue("CC(C)n1cnc2c1C(C(=O)N(C)C)N(Cc1ccccc1)CC2 (configuration not stated)")
-2.56
>>> observedvalue("Cc1nc(CN2CCc3ncnc(-c4ccncc4)c3CC2)cs1")
-70
>>> observedvalue("O=C1CCC2(CCCN(C(=O)c3ccccn3)CC2)N1 (configuration not stated)")
-2.51
>>> observedvalue("CC(=O)Nc1ccc(Oc2cccc(CN3CCCC3)c2)cc1")
-14
>>> observedvalue("CC(C)c1cnc(CN(C)C2CCN(CCc3ccccn3)C2)o1 (configuration not stated)")
2.37
>>> observedvalue("CC(C)(C)CN1CCCC2(CCN(C(=O)c3ccc(O)nc3)C2)C1 (configuration not stated)")
-0.937
>>> observedvalue("CN(C)C(=O)CNC(=O)c1cc(Br)c2c(c1)OCCO2")
16.4
>>> observedvalue("COCCCN1CCCC1c1noc(C2CC2)n1 (configuration not stated)")
-11.5
>>> observedvalue("CCOc1ccc(CN2CCOCC2c2[nH]ncc2C)cc1CO (configuration not stated)")
-2.92
>>> observedvalue("Cc1ccc(OCC(=O)NCc2ccccc2F)nc1")
-12
>>> observedvalue("CCc1cc(N2CCNCC2)n2nc(C)c(C)c2n1")
-2.59
>>> observedvalue("O=C(CCN1CCC(c2cc3ccccc3[nH]2)CC1)N1CCOCC1")
-3.81
>>> observedvalue("CCc1cc(N(C)Cc2ccncn2)n2nccc2n1")
3.61
>>> observedvalue("Cc1cc(N2CCCC2c2cccnc2)nc(C)n1 (configuration not stated)")
-8.3
>>> observedvalue("CCOc1ccc2cc(C(=O)NCCC(=O)N(C)C)[nH]c2c1")
-6.16
>>> observedvalue("O=C(NC[C@H]1OC[C@@H]2CN(Cc3ccco3)CC[C@@H]21)c1cscn1")
-145
>>> observedvalue("Cc1cccc(CN2CC3(CCN(Cc4ccco4)CC3)OCC2=O)n1")
8.1
>>> observedvalue("O=C1[C@@H]2CN(c3ncnc4[nH]ccc34)C[C@]2(C(=O)O)CN1CC1CC1")
2.62
>>> observedvalue("Clc1ccccc1CN1CCc2nc(C3CCNCC3)ncc2C1")
-36.6
>>> observedvalue("CCN(Cc1cccc2c1OCO2)C(=O)NCc1ccccn1")
1.48
>>> observedvalue("Cc1[nH]ncc1C(=O)N1CCCC(c2cc(C(F)(F)F)[nH]n2)C1 (configuration not stated)")
-7.2
>>> observedvalue("Cc1ccc2c(c1)cc(CN1CC[C@](C)(O)[C@H](C)C1)n2C")
0.379
>>> observedvalue("Cc1nc(N(C)C)ncc1C(=O)N[C@@H]1CCc2ccccc21")
5.77
>>> observedvalue("CN(CCNC(=O)NCc1ccncc1)C1CCCC1")
-2.95
>>> observedvalue("Cc1noc(C)c1CNC(=O)Nc1ccc(N2CCOC2=O)cc1")
-2.93
>>> observedvalue("CCn1cc(CN2CCCN(C(=O)CCN3CCCC3=O)CC2)cn1")
0.428
>>> observedvalue("COc1cc(OC)cc(-n2ccnc2-c2cc3n(n2)CCNC3)c1")
-12.2
>>> observedvalue("O=C(c1ccccn1)N1CCC2(CC1)COC(COc1cccnc1)C2 (configuration not stated)")
-1.98
>>> observedvalue("CN(CC1CCCCO1)c1ncnc2cc(F)ccc12 (configuration not stated)")
-2.15
>>> observedvalue("O=C(C1CCC1)N1C[C@H]2CC[C@@H](C1)N(S(=O)(=O)c1ccccc1)C2")
-10
>>> observedvalue("CC(Cc1ccco1)NC(=O)Nc1ccc(N2CCCC2)nc1 (configuration not stated)")
-3.31
>>> observedvalue("Cc1nn(C)c(C)c1C1COCCN1C(=O)CCc1ccccc1 (configuration not stated)")
-0.284

Values from ChEMBL document CHEMBL4513216
